Reference source: the nanobody polyreactivity screen of Harvey et al. (2022)

# MEASUREMENT DESCRIPTION: yeast display, Sf9 membrane polyspecificity reagent, FACS + sequencing; frameworks hold sequencing errors
OBSERVABLE: polyreactivity (PSR sort gate)

SEQUENCE CHAIN: QVQLVESGGGLVQAGGSLRLSCAASGFTFSDNAMGWYRQAPGKERELVAASSRSGGRTYYADSVKGRFTISRDNAKNTVYLQMNSLKPEDTAVYYCNARRLSTGFDRYDYWGQGTQVTVSS
polyreactivity (PSR sort gate): high polyreactivity
--
SEQUENCE CHAIN: QVQLVESGGGLVHAGGSLRLSCAASGRTFKIYAMGWYRQAPGKERELVATISWRGGSTYYADSVKGRFTISRDNAKNTVYLQMNSLKPEDTAVYYCAKALYVAGSAYRAGYGVRYDYWGQGTQVTVSS
polyreactivity (PSR sort gate): low polyreactivity
--
SEQUENCE CHAIN: QVQLVESGGGLVQAGGSLRLSCAASGIIFHFNDMGWTTQAPGKERELVAAISRRGSTYYADSVTGRFTISRDNAKNSVYLQMNSLKPEDTAVYYCAKYRGRVKTYNGGYDYWGQGTQVSVSS
polyreactivity (PSR sort gate): low polyreactivity
--
SEQUENCE CHAIN: QVQLVESGGGLVQAGGSLRLSCAASGIIFHFNDMGWYRLAPGKERELVAAITSGGSTNYADSVKGRFTISRDNAKKTVYLQMNSLKPEDTADYYCAARRGLRLFAYRHGYWGQGTQVTVSS
polyreactivity (PSR sort gate): low polyreactivity
--
SEQUENCE CHAIN: QVQLVESGGGFVQAGGSLRLSCAASGSTFDYNTMGWYRQAPGKERELVAAISESGGSTYYADSVKGRFTISRDNAKNTVYLQMNSLKPEDTAVYYCAADTIGYHYWYDYWGQGTQVTVSS
polyreactivity (PSR sort gate): low polyreactivity
--
SEQUENCE CHAIN: QVQLVESGGGLVQAGGSLRLSCAASGFISDVYAMGWYRQAPGKERELVAVITWRGSTYYADSVKGRFTISRDNAKNTVYLQMNSLKPEDTAFYYCAAESQGDWAFDYWGQGTQVTVSS
polyreactivity (PSR sort gate): low polyreactivity
--
SEQUENCE CHAIN: QVQLVESGGGLVQAGGSLRLSCAASGRILRTYAMGWYIQAPGKERELVAAISRSGGSTYYADSVKGRFTLSRDNAKNTVAVQMTSLKPEDTAVYYCHKAYGGRGSKDEYWGQGTQVTVSS
polyreactivity (PSR sort gate): high polyreactivity
--
SEQUENCE CHAIN: QVQLVESGGGLVQAGGSLRLSCAASGSIFDSYAMGWYRQAPGKERELVAAISWSGGSTYYADSVKGRFTISRDTAKNTVYLQMNSLKPDDTAVYYCNTDWADYYYYTDYDYWGQGTQLTVSS
polyreactivity (PSR sort gate): high polyreactivity

Query :: Which polyreactivity (PSR sort gate) value is on record for QVQLVESGGGLVQAGGSLRLSCAASGRTFQFYTMGWYRQAPGKERELVAVITVSSASTFYADSVKGRFTISRDNAKNTVYLQMNSLKPEDTAVYYCAAGLVLNVGMDSWGQGTQVTVSS ?
Result :: low polyreactivity

----------
# MEASUREMENT DESCRIPTION: yeast display, Sf9 membrane polyspecificity reagent, FACS + sequencing; frameworks hold sequencing errors
OBSERVABLE: polyreactivity (PSR sort gate)

The following sequences have reported results that may help.
SEQUENCE CHAIN: QVQIVESGGGLVQAVGSLRLSCAASGFIFMANAMGWYRQAPGKERELVAAITTGGRTNYADSVKGRFTISRDNAKNTVYLQMNSLKPEDTAVYYCAARYINGWVRSFYYWGQGTQVNVSS
OBSERVABLE: polyreactivity (PSR sort gate)
RESULT: high polyreactivity

SEQUENCE CHAIN: QGQLVESWGGLVQAGGSLRLSCAATRRTFLYYVMGWYRQAPGKETELVAAITNRGGSTYYADSVKGRFTISRDNAKNNVYVLMKSLKQEDTAVYYSNAPYGVYWSSTYYFWGQGTQVTVSS
OBSERVABLE: polyreactivity (PSR sort gate)
RESULT: high polyreactivity

SEQUENCE CHAIN: QVQLVESGGGLDQAGGSLRLSCAASGFIFYYYAMGWYRQAPGKEREFVAGISRRGGSSYYADSVKGRFTISRDNAKNTVYLQMNSLKPEDTAVYYCIVDFHWQRFHHKSAAYDYWGQGTQVTVSS
OBSERVABLE: polyreactivity (PSR sort gate)
RESULT: high polyreactivity

SEQUENCE CHAIN: QVQLVESGGGLVQAGGSLRLSCAASGGTFWKNAMGWYRQAPGKERELVAAIRSSSGNTYYADSVKGRFTISRDNAKNTVYLQMNSLKPEDTAVYSCARRYYDYGYDYYWGQGTQVTVSS
OBSERVABLE: polyreactivity (PSR sort gate)
RESULT: high polyreactivity

SEQUENCE CHAIN: QVHLVETGGGLVQAGGSLRLSCAASGRTFYVNAMGWYRQAPWKERELVARITSGGSTYYADSVKGRFTISRDNAKNTVYLQMNSLKPEDTAVYYCAKKYIGYQVWIHSTRRYDYWGHGTQVTVSS
OBSERVABLE: polyreactivity (PSR sort gate)
RESULT: low polyreactivity

SEQUENCE CHAIN: QVHLVESGGGLVQAGGSLRLTCAASGIIFRLYAMGWYRQAPGKEREFVARISKRGGSTYYADSVKGRFTISRDNSKNTVYLQMNSLKPEDTAVYYCAADAPLSYYHDYDYWGQGTQVTVSS
OBSERVABLE: polyreactivity (PSR sort gate)
RESULT: high polyreactivity

SEQUENCE CHAIN: QVQLVESGGGLVQAGGSLRLSCAASGRTFGRNGMGWYRQAPGKERELVAAISIGDSTTYADSVKGRFTISRDNAKNTVYLQMNSLKPEDTAVYYCAAEIERYPVWEYRGKYDYWGQGTQVTVSS
OBSERVABLE: polyreactivity (PSR sort gate)
RESULT: low polyreactivity

SEQUENCE CHAIN: QVQLVESGGGLVQAGGSLRLSCAASGFTLRKYAMGWYRQAPGKEREFVATSSSRAASTYYADSVKGRFTISRDNAQNPVYLQMNSLNQEDTAVYYCNKLSPYRGFYWGQGTQVTVSS
OBSERVABLE: polyreactivity (PSR sort gate)
RESULT: high polyreactivity

Query :: Which polyreactivity (PSR sort gate) value is on record for QVQLVESGGGLVQAGGSLRLSCAASGFIFTLYAMGWYRKAPGKEREFVAAISWSDGSTTYADSVKGRFTISRDNAKNTVYLQMNSLKPEDTAVYYCNTSYIIWYDSWGQGTQVTVSS ?
Result :: low polyreactivity

Query :: Which polyreactivity (PSR sort gate) value is on record for QVQLVESGGGLVQAGGSLRLSCAASGFIFWSNAMGWYRQAPGKERELVAAISWSGGSTYYADSVKGRFTISRDNAKKTVYLQMNSLKPEDTAVYYCNTLNVQRDEHDYWGQGTQVTVSS ?
Result :: high polyreactivity

Query :: Which polyreactivity (PSR sort gate) value is on record for QVQLVESGGGLVQAGGSLRLSCAASGLIFASYAMGWYRQAPGKERELVAAITSSGGSTYYADSVKGRFTISRDNAKNTVYLQMNSLKPEDTAVYYCAADIYTYNLFYHWSWLDYNYWGQGTQVTVSS ?
Result :: high polyreactivity

Query :: Which polyreactivity (PSR sort gate) value is on record for QVQHVESGGGLVQAGGSLRLSCAASGYNFPYNPMGWYRQATGKEREFVAASTSSGGSTYYADSVKGRFTISRDNAKNTVYLQMNSLKPEDTAVYYCARVPLHRYGYWGQGTQVNVSS ?
Result :: high polyreactivity

Query :: Which polyreactivity (PSR sort gate) value is on record for QVQLVESGGGLVQAGGSLRLICAASGSTFGPYAMGWYRQAPGKERELVADITVSDGSTYYADSVKGRFTISRDNAKNTVYLQMNSLNPEDTAVYYCAAEIYYSFGYWGQGTQVTVSS ?
Result :: low polyreactivity

Query :: Which polyreactivity (PSR sort gate) value is on record for QVQLVESGGGLVQAGGSLRIICAASGFIFKYYAMGWYRQAPGKERELVAAISSGGSTKYADSVKGRFTISRDNAKNTVYLQMNSLIPEDTAVYYCNADWYWKYDYWGQGTQVTVSS ?
Result :: high polyreactivity
